// data source = PubChem BioAssay AID651821

Listed compounds paired with reported inhibition
Experiment: binders of r(CAG) RNA repeats, primary screen, biochemical, fluorescence (AID 651821);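 also: 0% = DMSO alone and 100% = 100 µM mitoxantrone as full dye displacement; higher means more dye released from RNA so lower well fluorescence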
Details: r(CAG) RNA repeat, TO-PRO-1 dye displacement fluorescence; at 3 µM; active compounds read high
The whole screen tested about 370,000 compounds, of which about 4,700 (1.3%) were called active. The sample holds actives, similar compounds and a random draw of the others, so the mix is not that of the screen.
Write down the numeric answer in % and omit the unit.

compound | unit_label | inhibition
Cc1cc(C)c(C#N)c(SCc2ccc3c(c2)OCO3)n1 | % | 4

// returns reported inhibition for input `CC(C)CNc1cccc2c1S(=O)(=O)N(Cc1cn(Cc3ccccc3C(F)(F)F)nn1)Cc1ccccc1O2`
7.51

// returns reported inhibition for input `CCCCCCCCN1C(=O)[C@@H](CC(=O)NCCCC)C[C@@]2(C(=O)OC)C1=C[C@H](C(C)(C)C)O[C@@H]2C`
0.05

// returns reported inhibition for input Cc1cc(C)c(C#N)c(SCc2[nH]nc3c2C(c2ccccc2)C(C#N)=C(N)O3)n1 (stereo not given)
38.2

// returns reported inhibition for input `COc1ccc(-n2c(COc3ccc(C)cc3)nnc2SCC(=O)Nc2ccc(Oc3ccccc3)cc2)cc1`
5.38

// returns reported inhibition for input `CN1[C@H](Cc2ccccc2)COc2cccc(N3CCSCC3)c2S1(=O)=O`
4.7

// returns reported inhibition for input CCCCN(C(C)=O)c1ccc2c(c1)C1CC2CCN1Cc1ccccc1 (stereo not given)
-3.96

// returns reported inhibition for input CCCc1nc2c([nH]1)C(c1cccnc1)C(C#N)=C(N)O2 (stereo not given)
0.75

// returns reported inhibition for input `Cc1ccc(-n2c(SCC(=O)Nc3cccc4ccccc34)nnc2-c2ccco2)cc1`
6.64

// returns reported inhibition for input `O=C(CCCN1C(=O)/C(=C\c2ccco2)SC1=S)Nc1cccc2ccccc12`
40.1

====

Experiment: binders of r(CAG) RNA repeats, primary screen, biochemical, fluorescence (AID 651821)
Settings: r(CAG) RNA repeat, TO-PRO-1 dye displacement fluorescence; at 3 µM
The campaign covered roughly 370,000 compounds. About 4,700 (1.3%) were called active.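 Rule for the calls: active = inhibition above the plate cutoff, the mean of all test compounds on that plate plus 3 SD (cut at about 35% in these data); inactive = the rest.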 What follows is part of a selection rich in actives, with near analogues and random picks from the rest.
Output constraint: value belongs to active, inactive

Take a look at these entries with their results.
compound | assigned_class
CC(C)(C)C1C/C(=C/c2ccco2)C(=O)/C(=C/c2ccco2)C1 (stereo unspecified) | active
Cc1cc(C)c2nc(-c3cccnc3)cc(C(=O)Nc3ccc(S(=O)(=O)Nc4onc(C)c4C)cc3)c2c1 | active
O=C(NCc1cccs1)C1CCN(S(=O)(=O)c2ccccc2[N+](=O)[O-])CC1 | inactive
O=C(CCCOc1ccccc1)Nc1cccc(C(=O)O)c1 | inactive
CCCCNC(=O)C[C@H]1C(=O)N(Cc2ccc(OC)cc2)C2=CCCC[C@@]21C(=O)OCC | inactive

Which outcome was entered for the compound `O=C(Cc1ccccc1)Nc1ccc(C(=O)Nc2ccccc2C(=O)O)cc1` in this test?
active

Which outcome was entered for the compound `O=C(Nc1ccc(S(=O)(=O)Nc2ncccn2)cc1)c1cncc(Br)c1` in this test?
inactive

Which outcome was entered for the compound `C[C@@H]1ON(C)[C@H]2C[C@H]3c4[nH]c5cccc(-c6ccc7c(c6)OCO7)c5c4CCN3C[C@@H]12` in this test?
inactive

Which outcome was entered for the compound `CCc1ccc(C(=O)CSc2nnc(C)c(=O)[nH]2)cc1` in this test?
inactive

Which outcome was entered for the compound `O=C(COc1ccc([N+](=O)[O-])cc1)Nc1cccc(C(=O)Nc2ccccc2C(=O)O)c1` in this test?
active

====

Experiment: binders of r(CAG) RNA repeats, primary screen, biochemical, fluorescence (AID 651821)
Conditions: r(CAG) RNA repeat, TO-PRO-1 dye displacement fluorescence; at 3 µM
About 4,700 (1.3%) of roughly 370,000 compounds were called active.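 How the source made its calls: active means inhibition above the plate cutoff, the mean of all test compounds on that plate plus 3 SD (cut at about 35% in these data); inactive means the rest.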 The entries come from a sample that favours actives as a whole.
Output constraint: value belongs to active, inactive

Take a look at these entries with their results.
compound | assigned_class
Cc1cccc(C)c1NC(=O)C(c1cccc2ccccc12)n1c(=O)c(-c2ccco2)nc2ccccc21 (stereo not given) | active
NC(=O)c1c(Nc2nc3c(F)cccc3s2)sc2c1CCCC2 | active
O=C(OCC(=O)N1CCCCC1)c1ccc(OC(F)(F)F)cc1 | inactive
CCCC(=O)N1CCC1(C)C(=O)NS(=O)(=O)c1ccc(Cl)cc1 (stereo not given) | inactive
CC(C)c1ccc(CC(=O)N2CCC2(C)C(=O)NS(=O)(=O)c2ccc(C(C)(C)C)cc2)cc1 (stereo not given) | active
CC1=CC=CC2=N/C(=N\S(=O)(=O)c3ccc(F)cc3F)c3ccccc3CN12 | inactive
CC(c1ccc(N)cc1)c1cn(C)c2ccccc12 (stereo not given) | inactive
COc1ccc(NC(=O)C(c2ccncc2)n2c(=O)c(-c3cc4ccccc4[nH]3)nc3ccccc32)cc1 (stereo not given) | inactive

Which outcome was entered for the compound COc1ccc(C(C(=O)NCc2ccccc2)n2c(=O)c(-c3ccccc3)nc3ccccc32)cc1 (stereo not given) in this test?
inactive

Which outcome was entered for the compound `C#CCCN([C@H](C(=O)OC)C(C)C)S(=O)(=O)c1ccc(F)cc1Br` in this test?
inactive

====

Assay: binders of r(CAG) RNA repeats, primary screen, biochemical, fluorescence (AID 651821)
Conditions: r(CAG) RNA repeat, TO-PRO-1 dye displacement fluorescence; at 3 µM; active compounds read high
Screen size: about 370,000 compounds; about 4,700 (1.3%) were called active. Shown is part of a subset that was picked to be rich in actives.
recorded_endpoint: inhibition (%)
Write down the numeric answer in % and omit the unit.

Solved entries (count: 4):
test_smiles | inhibition (%)
Cc1ccc(-n2c(SCC(=O)Nc3ccc(S(=O)(=O)Nc4nccs4)cc3)nnc2-c2cccnc2)cc1 | 60.1
Cc1ccc(-n2c(SCC(=O)Nc3ccc(S(=O)(=O)Nc4nccs4)cc3)nnc2-c2ccccn2)cc1 | 69.8
Cn1c(SCC(=O)Nc2nccs2)nnc1-c1cccnc1 | 3.4
Cc1ccc(S(=O)(=O)NCCC(c2ccccc2)c2ccccc2)cc1C(=O)O | 42.4

Turning now to a further molecule:
// returns reported inhibition for input `Cc1ccc(-c2nnc(SCC(=O)N/N=C/c3cccs3)n2-c2ccc(C)cc2)cc1`
2.97

====

Experiment: binders of r(CAG) RNA repeats, primary screen, biochemical, fluorescence (AID 651821);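 also: 0% = DMSO alone and 100% = 100 µM mitoxantrone as full dye displacement; higher means more dye released from RNA so lower well fluorescence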
Details: r(CAG) RNA repeat, TO-PRO-1 dye displacement fluorescence; at 3 µM
Out of some 370,000 compounds screened, about 4,700 (1.3%) were called active.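 How the source made its calls: active means inhibition above the plate cutoff, the mean of all test compounds on that plate plus 3 SD (cut at about 35% in these data); inactive means the rest.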 What follows is part of a selection rich in actives, with near analogues and random picks from the rest.
Output constraint: value belongs to active, inactive

Take a look at these entries with their results.
compound | assigned_class
COc1ccc(N2CCN(CCNS(=O)(=O)c3ccc([N+](=O)[O-])cc3)CC2)cc1 | inactive
Cc1ccc2nc(SCC(=O)N3CC(C)OC(C)C3)nc(=O)n2c1 (stereo not given) | inactive
O=c1cc(CN2CCN(S(=O)(=O)/C=C/c3ccccc3)CC2)c2ccc(O)cc2o1 | active
C[C@@H]1COc2cccc(N3CCCC3)c2S(=O)(=O)N1C | inactive

Below: the item to evaluate.
Which outcome was entered for the compound O=C(Nc1cccc(Cl)c1)OC1CC2CC1[C@H]1CCCCN1[C@H]2Cc1ccccc1 (stereo not given in full) in this test?
inactive

====

Listed compounds paired with reported inhibition
Assay: binders of r(CAG) RNA repeats, primary screen, biochemical, fluorescence (AID 651821);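 also: 0% = DMSO alone and 100% = 100 µM mitoxantrone as full dye displacement; higher means more dye released from RNA so lower well fluorescence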
Settings: r(CAG) RNA repeat, TO-PRO-1 dye displacement fluorescence; at 3 µM; active compounds read high
The campaign covered roughly 370,000 compounds. About 4,700 (1.3%) were called active. The sample as a whole holds a higher share of actives than the screen did.
Write down the numeric answer in % and omit the unit.

compound | reported_result
O=C(Nc1ccc(Br)cc1)OCCN1C(=O)CCC12CCC(c1ccccc1)CC2 (stereo unspecified) | 5.9
COc1ccc(C(CNC(=O)c2ccc(S(=O)(=O)Nc3ccccc3C)cc2)N2CCOCC2)cc1 (stereo unspecified) | -3.71
O=C(Nc1nnc(-c2ccccc2)o1)c1cc(-c2cccs2)nc2ccccc12 | 56.2

Turning now to a further compound:
// returns reported inhibition for input `O=c1ccc2c(-c3ccccc3S(=O)(=O)O)c3ccc(O)c(O)c3oc-2c1O`
66.8

====

Assay: binders of r(CAG) RNA repeats, primary screen, biochemical, fluorescence (AID 651821);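 also: 0% = DMSO alone and 100% = 100 µM mitoxantrone as full dye displacement; higher means more dye released from RNA so lower well fluorescence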
Details: r(CAG) RNA repeat, TO-PRO-1 dye displacement fluorescence; at 3 µM; active compounds read high
In all, about 370,000 compounds went through this assay and about 4,700 (1.3%) were called active. This excerpt belongs to a sample that is enriched for actives.
recorded_endpoint: inhibition (%)
Write down the numeric answer in % and omit the unit.

compound | inhibition (%)
CCCCNC(=O)C[C@H]1C[C@@]2(C(=O)OC)C(=C[C@H](COCc3ccccc3)O[C@@H]2C)N(Cc2ccc(Cl)cc2Cl)C1=O | 8.58
CCOC(=O)[C@@]12CN(C(=O)OC(C)(C)C)CC=C1N(Cc1ccc(OC)cc1)C(=O)[C@H]2CC(=O)NCc1ccc(OC)c(OC)c1 | 1.18
COC(=O)C1CN(CCc2ccccc2)CCS(=O)(=O)N1Cc1cccc(Cl)c1 (centres undefined) | 1.15

Turning now to a further compound:
// returns reported inhibition for input Cc1ccc(CNC(=O)C2CCN(S(=O)(=O)c3ccc4nc5c(c(C(=O)O)c4c3)CC(C)CC5)CC2)cc1 (centres undefined)
51.8
